Where do the numbers come from? From patent US8426408B2.

# System tested: KDR (Homo sapiens, UniProt P35968)
# Sequence (P35968 20-1356): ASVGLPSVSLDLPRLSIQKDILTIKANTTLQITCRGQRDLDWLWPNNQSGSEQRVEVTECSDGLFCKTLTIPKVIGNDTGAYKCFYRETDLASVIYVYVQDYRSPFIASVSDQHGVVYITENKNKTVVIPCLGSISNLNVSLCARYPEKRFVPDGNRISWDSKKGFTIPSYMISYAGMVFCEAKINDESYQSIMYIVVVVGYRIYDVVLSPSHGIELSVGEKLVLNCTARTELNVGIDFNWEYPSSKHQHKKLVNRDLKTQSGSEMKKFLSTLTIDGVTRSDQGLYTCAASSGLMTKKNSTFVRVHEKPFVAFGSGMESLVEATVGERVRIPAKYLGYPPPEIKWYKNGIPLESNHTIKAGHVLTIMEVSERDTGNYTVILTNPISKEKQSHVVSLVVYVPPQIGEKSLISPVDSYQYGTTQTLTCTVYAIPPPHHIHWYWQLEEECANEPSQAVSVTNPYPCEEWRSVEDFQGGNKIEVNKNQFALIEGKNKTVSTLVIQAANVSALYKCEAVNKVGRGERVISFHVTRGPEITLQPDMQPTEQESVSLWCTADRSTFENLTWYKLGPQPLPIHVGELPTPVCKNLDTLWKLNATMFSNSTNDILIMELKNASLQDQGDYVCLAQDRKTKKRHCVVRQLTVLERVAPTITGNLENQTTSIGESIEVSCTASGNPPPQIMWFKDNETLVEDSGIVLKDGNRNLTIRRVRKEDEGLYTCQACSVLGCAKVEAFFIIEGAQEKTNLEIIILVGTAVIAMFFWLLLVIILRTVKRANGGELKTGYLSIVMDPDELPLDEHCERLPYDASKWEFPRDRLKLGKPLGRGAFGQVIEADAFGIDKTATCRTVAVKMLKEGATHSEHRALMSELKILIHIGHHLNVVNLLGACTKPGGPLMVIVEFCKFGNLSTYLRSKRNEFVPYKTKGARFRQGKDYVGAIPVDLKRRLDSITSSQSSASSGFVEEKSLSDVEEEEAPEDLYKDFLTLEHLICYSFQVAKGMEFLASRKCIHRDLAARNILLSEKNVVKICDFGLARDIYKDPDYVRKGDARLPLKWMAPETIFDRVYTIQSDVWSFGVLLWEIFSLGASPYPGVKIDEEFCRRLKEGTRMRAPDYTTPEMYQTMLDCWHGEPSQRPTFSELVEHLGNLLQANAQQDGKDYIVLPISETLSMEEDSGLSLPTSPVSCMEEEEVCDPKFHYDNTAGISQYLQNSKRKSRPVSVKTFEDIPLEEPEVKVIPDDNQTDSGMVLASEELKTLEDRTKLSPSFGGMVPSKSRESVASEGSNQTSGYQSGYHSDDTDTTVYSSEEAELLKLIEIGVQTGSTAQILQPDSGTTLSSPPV
# Experiment notes: KDR cellular assay (KDR receptor phosphorylation ELISA)
# Settings: KDR transfected 3T3 (embryonic mouse) cells, VEGF stimulated; read-out: IC50 inhibition of KDR phosphorylation
# Protocol: The ability of compounds to inhibit KDR receptor phosphorylation in cells was measured by ELISA following the protocol outlined below. KDR transfected 3T3 (embryonic mouse) cells added to 96-well tissue culture plates at 20,000 cells/well. […] As assay plates developed, the plates were each monitored on a Molecular Devices Spectramax set to 650 nm, until the signal in the high control wells was around 0.6 OD and the signal in the negative control wells was around 0.1-0.15 OD. […]
pIC50: −log10 of the molar value.
List of pIC50 values.

Here is how some molecules turned out for pIC50.
* CNC(=O)Cn1cc(Nc2ncc(Cl)c(N[C@@H]3[C@H]4CC[C@H](C4)[C@@H]3C(N)=O)n2)cn1 | 6.00 to 7.00
* CC1(C)[C@H]2C[C@H](C(N)=O)[C@H](Nc3nc(Nc4cnn(Cc5ccccc5)c4)ncc3Cl)[C@@H]1C2 | 6.00 to 7.00
* Cn1cc(Nc2ncc(C(F)(F)F)c(N[C@@H]3[C@@H]4CC[C@@H](C4)[C@@H]3C(N)=O)n2)cn1.Cn1cc(Nc2ncc(C(F)(F)F)c(N[C@H]3[C@H]4CC[C@H](C4)[C@H]3C(N)=O)n2)cn1 (mixture of isomers) | > 7.00
* CCn1cc(Nc2ncc(Cl)c(N[C@@H]3[C@H](C(N)=O)[C@@H]4C=C[C@H]3C4)n2)cn1.CCn1cc(Nc2ncc(Cl)c(N[C@H]3[C@@H](C(N)=O)[C@H]4C=C[C@@H]3C4)n2)cn1 (mixture of isomers) | 6.00 to 7.00
* CCn1cc(Nc2ncc(Br)c(N[C@@H]3[C@H](C(N)=O)[C@H]4C=C[C@@H]3C4)n2)cn1.CCn1cc(Nc2ncc(Br)c(N[C@H]3[C@@H](C(N)=O)[C@@H]4C=C[C@H]3C4)n2)cn1 (mixture of isomers) | > 7.00
* NC(=O)[C@@H]1[C@H](Nc2nc(Nc3cnn(CC4CCO4)c3)ncc2Cl)[C@H]2C=C[C@@H]1C2 (stereo partly drawn) | > 7.00

Task item: Which pIC50 value is on record for Cn1cc(Nc2ncc(Cl)c(N[C@@H]3CC[C@@H]3C(N)=O)n2)cn1.Cn1cc(Nc2ncc(Cl)c(N[C@H]3CC[C@H]3C(N)=O)n2)cn1 (mixture of isomers) ?
Reply: 6.00 to 7.00

Task item: Okay, and Cn1cc(Nc2ncc(Cl)c(Nc3ccccc3C(C)(C)O)n2)cn1 ?
Reply: 6.00 to 7.00

Task item: Okay, and NC(=O)[C@@H]1[C@H](Nc2nc(Nc3cnn(CCc4ccccc4)c3)ncc2Br)[C@H]2C=C[C@@H]1C2 ?
Reply: > 7.00

Task item: Okay, and Cn1cc(Nc2ncc(Cl)c(N[C@@H]3[C@H](C(N)=O)[C@H]4CC[C@@H]3O4)n2)cn1.Cn1cc(Nc2ncc(Cl)c(N[C@H]3[C@@H](C(N)=O)[C@@H]4CC[C@H]3O4)n2)cn1 (mixture of isomers) ?
Reply: 6.00 to 7.00

Task item: Okay, and CCn1cc(Nc2ncc(Cl)c(Nc3ccc4[nH]ncc4c3)n2)cn1 ?
Reply: 6.00 to 7.00

Task item: Okay, and NC(=O)[C@@H]1[C@H](Nc2nc(Nc3cnn(-c4ccccc4)c3)ncc2Cl)[C@H]2C=C[C@@H]1C2 ?
Reply: > 7.00
